Target or test system: T1, KicGAS (Kaposi sarcoma-associated herpesvirus …, UniProt Q2HR80 1-131)
T1 sequence: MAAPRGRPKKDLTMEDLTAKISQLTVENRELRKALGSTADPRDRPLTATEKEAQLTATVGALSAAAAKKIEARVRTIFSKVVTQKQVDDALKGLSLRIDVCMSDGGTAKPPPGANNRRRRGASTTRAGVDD
Assay notes: fluorescence polarization; Hill n 1.50; EMSA: 20 mM Tris-HCl pH 7.4, 150 mM NaCl, 10% glycerol, on ice, 20 nM FAM-DNA, gel at 4 C; FP: 400 pg/ul FAM-DNA, buffer and temperature not stated; Hill fits
Condition info: protein: recombinant; tags: Avi-His6-SUMO removed (tag-free); label: 5' FAM
Test readout: pKd
Would you please state pKd, meaning minus log10 of the concentration in mol/L, as a bare number?

Lookup: Give recorded pKd. ATCTACTAGTGATCTATGACTGATCTGTAC (ssDNA) [ssISD30]
Found: 6.14
